# SUBJECT OF TEST: human JAK1 (a.a. 837-1142) (Homo sapiens, UniProt P23458)
# Construct: human JAK1 (a.a. 837-1142); His tag (N); made in house; host or cells: insect cells (baculovirus)
# Sequence (P23458 849-1154): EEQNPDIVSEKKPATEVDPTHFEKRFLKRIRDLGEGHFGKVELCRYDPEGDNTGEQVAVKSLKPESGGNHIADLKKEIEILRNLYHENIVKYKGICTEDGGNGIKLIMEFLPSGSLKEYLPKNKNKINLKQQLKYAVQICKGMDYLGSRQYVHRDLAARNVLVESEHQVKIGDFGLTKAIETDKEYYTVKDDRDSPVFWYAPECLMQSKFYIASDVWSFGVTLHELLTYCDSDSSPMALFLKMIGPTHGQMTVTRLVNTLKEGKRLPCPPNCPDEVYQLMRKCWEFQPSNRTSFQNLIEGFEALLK
# ASSAY METHOD TEXT: In vitro JAK kinase assay (HTRF, phosphorylation of a biotinylated peptide), JAK1
# Assay type: biochemical
# CONDITION SUMMARY: Assay Conditions 1 mM ATP
pIC50: −log10 of the molar value. Structures can show the parent of a compound that is named as a salt.
ENDPOINT LABEL: pIC50

Please review the following examples before continuing.
GET /value?item= N#CCC(C1CCN(c2nc3cccc(Br)c3o2)C1)n1cc(-c2ncnc3[nH]ccc23)cn1.O=C(O)C(F)(F)F (single isomer, unassigned) [Example 159] &field=pIC50 returns > 7.30

Form: molecule = N#CC[C@@H]([C@H]1CCN(c2ncc(CO)nc2C#N)C1)n1cc(-c2ncnc3[nH]ccc23)cn1 [Example 140, trifluoroacetate] ; pIC50 = > 7.30

Each molecule below has a reported value. Please supply its pIC50.
1. N#CCC(C1CCN(c2ccc3ccsc3n2)C1)n1cc(-c2ncnc3[nH]ccc23)cn1 (single isomer, unassigned) [Example 156]
2. N#CCC(C1CCN(c2ccc3c(n2)SCC3)C1)n1cc(-c2ncnc3[nH]ccc23)cn1 (single isomer, unassigned) [Example 29]
3. N#Cc1csc(N2CC[C@H](C(CF)n3cc(-c4ncnc5[nH]ccc45)cn3)C2)c1C#N (stereo partly drawn) [Example 80]
4. N#CCC(C1CCN(c2scnc2C#N)C1)n1ccc(-c2ncnc3[nH]ccc23)c1 (racemic) [Example 149-rac]

Outgoing:
1. > 7.30
2. > 7.30
3. > 7.30
4. > 7.30
